assay: Lipophilicity as measured by Log P; type: physicochemical; conditions: octanol/water
result.type: logP
Reply briefly: the number, and no unit.

[Q] What does the data say about its logP? Entry: [11CH3]N1C2CCC1C(c1cncc(I)c1)C2 (stereo unspecified)
[A] 1.09

====

experiment: Protein binding in baboon plasma; format: ADME, Papio; conditions: read-out: PPB (converted)
result.type: fraction unbound
Reply briefly: the number, and no unit.

[Q] What does the data say about its fraction unbound? Entry: [11CH3]N1C2CCC1C(c1cncc(I)c1)C2 (stereo unspecified)
[A] 0.6

====

experiment: Half life of the compound; format: ADME
result.type: half-life (h)
Note: unit h is implicit; provide only the numeric part.

[Q] What does the data say about its half-life? Entry: [11CH3]N1C2CCC1C(c1cncc(I)c1)C2 (stereo unspecified)
[A] 1

// provenance: ChEMBL document CHEMBL1138129
